Test system: HSV-1
experiment: HSV-1 infection of Vero 76 cells, viral DNA detected by hybridization capture (chemiluminescence)
Assay type: cell-based
experimentalContext: Human alphaherpesvirus 1; HSV-1 in Vero 76 cells, MOI=0.001, 40-48 hours at 37° C.
reportedProperty: pIC50
Answers are plain numbers, as −log10 of the molar value.

Quick one: pIC50 of CCSc1cc(Cl)cc2c(-c3ccnc(NC4CCCC4)n3)c(-c3ccc(F)cc3)nn12 ?
5.70

Turning now to a further compound:
pIC50 for CSc1cc(N2CCOCC2)cc2c(-c3ccnc(NC4CCCC4)n3)c(-c3ccc(F)cc3)nn12 ?
6.30
